Tested on: A2780
method_summary: In vitro inhibitory activity against Ovarian A2780 cell line was determined.
Type: functional, cell-based
condition_set: Homo sapiens
property_label: IC50
Answer by giving the amount and then stating its unit.

* COCO[C@H]1CC2OC[C@@]2(OC(C)=O)C2[C@H](OC(=O)c3ccccc3)C3(O)C[C@H](OC(=O)[C@H](O)[C@@H](NC(=O)c4ccccc4)c4ccccc4)C(C)=C(C3(C)C)[C@@]3(CO3)C(=O)[C@@]21C (stereo partly drawn) | 1.8 nM
* CC(=O)O[C@H]1C(=O)[C@@]2(C)C([C@H](OC(=O)c3ccccc3)C3(O)C[C@H](OC(=O)[C@H](O)[C@@H](NC(=O)c4ccccc4)c4ccccc4)C(C)=C1C3(C)C)[C@]1(OC(C)=O)COC1C[C@@H]2O (stereo partly drawn) | 3.5 nM

Prompt line: Any idea what its IC50 is? The compound is CC(=O)O[C@@]12COC1C[C@H](O)[C@@]1(C)C(=O)[C@@]3(CO3)C3=C(C)[C@@H](OC(=O)[C@H](O)[C@@H](NC(=O)c4ccccc4)c4ccccc4)CC(O)([C@@H](OC(=O)c4ccccc4)C21)C3(C)C (stereo partly drawn)
Response line: 2.5 nM
